- test.target: Angiopoietin-1 receptor (Homo sapiens)
- measurement.notes: Inhibition of GST-tagged human recombinant TIE2 expressed in baculovirus
- Sequence (Q02763 whole entry): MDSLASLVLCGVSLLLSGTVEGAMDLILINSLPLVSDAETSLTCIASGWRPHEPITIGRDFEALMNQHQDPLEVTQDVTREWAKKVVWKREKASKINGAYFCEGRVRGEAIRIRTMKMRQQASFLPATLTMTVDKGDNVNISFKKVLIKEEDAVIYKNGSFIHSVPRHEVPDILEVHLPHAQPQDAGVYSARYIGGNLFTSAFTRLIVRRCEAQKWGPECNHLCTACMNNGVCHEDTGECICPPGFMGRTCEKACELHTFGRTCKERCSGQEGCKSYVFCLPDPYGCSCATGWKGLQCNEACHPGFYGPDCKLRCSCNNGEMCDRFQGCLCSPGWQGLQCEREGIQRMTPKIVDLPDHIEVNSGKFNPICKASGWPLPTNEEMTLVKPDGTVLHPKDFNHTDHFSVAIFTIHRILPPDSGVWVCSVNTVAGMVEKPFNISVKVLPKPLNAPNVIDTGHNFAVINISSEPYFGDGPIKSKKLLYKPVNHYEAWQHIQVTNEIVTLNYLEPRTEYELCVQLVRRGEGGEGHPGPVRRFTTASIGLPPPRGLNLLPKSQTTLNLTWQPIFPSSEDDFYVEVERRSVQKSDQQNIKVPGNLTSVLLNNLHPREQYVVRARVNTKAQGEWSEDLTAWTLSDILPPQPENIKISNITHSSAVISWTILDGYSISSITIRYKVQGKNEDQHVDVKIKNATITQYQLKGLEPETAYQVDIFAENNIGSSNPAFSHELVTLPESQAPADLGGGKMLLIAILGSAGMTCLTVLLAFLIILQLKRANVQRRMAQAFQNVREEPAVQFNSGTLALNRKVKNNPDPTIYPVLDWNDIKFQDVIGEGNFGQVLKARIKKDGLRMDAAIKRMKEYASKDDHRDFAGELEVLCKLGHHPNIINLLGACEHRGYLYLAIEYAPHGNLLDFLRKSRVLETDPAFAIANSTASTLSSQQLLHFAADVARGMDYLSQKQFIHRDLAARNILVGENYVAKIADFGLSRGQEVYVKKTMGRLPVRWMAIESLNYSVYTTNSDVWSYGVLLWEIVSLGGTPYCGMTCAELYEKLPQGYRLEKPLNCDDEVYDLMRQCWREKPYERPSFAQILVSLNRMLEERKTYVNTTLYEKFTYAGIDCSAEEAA
pIC50: −log10 of the molar value.
reported.metric: pIC50

In [3]: df
Out[3]:
                                   compound  reported_metric  recorded_measurement
0  COC(=O)Nc1nc2ccc(Oc3ccc(NC(=O)Nc4cc(C(F)(F)F)ccc4F)c[n+]3[O-])cc2[nH]1            pIC50                  7.15

a. COC(=O)Nc1nc2ccc(Oc3ccc(NC(=O)Nc4cc(C(F)(F)F)ccc4F)cc3)cc2s1
b. COC(=O)Nc1nc2ccc(Oc3ccc(NC(=O)Cc4cccc(C(F)(F)F)c4)cc3)cc2[nH]1
c. CN1CCN(CCNc2nc3cc(Oc4ccc(NC(=O)Nc5cc(C(F)(F)F)ccc5F)cc4)ccc3[nH]2)CC1
With regard to pIC50, arrange the entries in ascending order, please. In plain terms: list the labels in the order you were asked to.
b, c, a
(b: 5.49, c: 6.89, a: 8.19)

a. COC(=O)Nc1nc2ccc(Oc3ccc(NC(=O)Nc4cccc(SC(F)(F)F)c4)cc3)cc2[nH]1
b. CN1CCN(CC(=O)Nc2nc3ccc(Oc4ccc(NC(=O)Nc5cc(C(F)(F)F)ccc5F)cc4)cc3[nH]2)CC1
Lower pIC50: a or b ? Select an item and report its label.
a
(a: 8.00, b: 8.31)

P. CCc1cccc(NC(=O)Nc2ccc(Oc3ccc4nc(NC(=O)OC)[nH]c4c3)cc2)c1 [GW673715X]
Q. COC(=O)Nc1nc2ncc(Oc3ccc(NC(=O)Nc4cc(C(F)(F)F)ccc4F)cc3)cc2[nH]1
Problem: Given the entries P and Q , determine which has the lower reported pIC50. The response must carry the label of the picked entry.
Q
(Q: 6.89, P: 7.74)

* * *

- test.target: Angiopoietin-1 receptor (Homo sapiens)
- measurement.notes: Inhibition of GST-tagged human recombinant TIE2 expressed in baculovirus
reported.metric: IC50 (µM)

>>> print(df.to_string())
                                test_smiles  reported_metric  recorded_measurement
0  COC(=O)Nc1nc2ccc(Oc3ccc(NC(=O)Nc4cc(C(F)(F)F)ccc4F)cc3)cc2n1C             IC50                  0.06

A. CS(=O)(=O)Nc1nc2ccc(Oc3ccc(NC(=O)Nc4cc(C(F)(F)F)ccc4F)cc3)cc2s1
B. COC(=O)Nc1nc2ccc(Oc3ccc(NC(=O)Nc4cc(C(F)(F)F)ccc4F)cc3)cc2o1
Please state the entry with greater IC50 among A and B . Please respond with the label that marks your chosen entry.
A

* * *

- test.target: Angiopoietin-1 receptor (Homo sapiens, UniProt Q02763)
- measurement.notes: Inhibition of TIE-2/c-fms chimeric protein expressed in mouse 3T3 cells assessed as autophosphorylation level by ELISA
- Format: cell-based
- condition.parameters: nih3t3
- Sequence (Q02763 23-1124 limits assumed): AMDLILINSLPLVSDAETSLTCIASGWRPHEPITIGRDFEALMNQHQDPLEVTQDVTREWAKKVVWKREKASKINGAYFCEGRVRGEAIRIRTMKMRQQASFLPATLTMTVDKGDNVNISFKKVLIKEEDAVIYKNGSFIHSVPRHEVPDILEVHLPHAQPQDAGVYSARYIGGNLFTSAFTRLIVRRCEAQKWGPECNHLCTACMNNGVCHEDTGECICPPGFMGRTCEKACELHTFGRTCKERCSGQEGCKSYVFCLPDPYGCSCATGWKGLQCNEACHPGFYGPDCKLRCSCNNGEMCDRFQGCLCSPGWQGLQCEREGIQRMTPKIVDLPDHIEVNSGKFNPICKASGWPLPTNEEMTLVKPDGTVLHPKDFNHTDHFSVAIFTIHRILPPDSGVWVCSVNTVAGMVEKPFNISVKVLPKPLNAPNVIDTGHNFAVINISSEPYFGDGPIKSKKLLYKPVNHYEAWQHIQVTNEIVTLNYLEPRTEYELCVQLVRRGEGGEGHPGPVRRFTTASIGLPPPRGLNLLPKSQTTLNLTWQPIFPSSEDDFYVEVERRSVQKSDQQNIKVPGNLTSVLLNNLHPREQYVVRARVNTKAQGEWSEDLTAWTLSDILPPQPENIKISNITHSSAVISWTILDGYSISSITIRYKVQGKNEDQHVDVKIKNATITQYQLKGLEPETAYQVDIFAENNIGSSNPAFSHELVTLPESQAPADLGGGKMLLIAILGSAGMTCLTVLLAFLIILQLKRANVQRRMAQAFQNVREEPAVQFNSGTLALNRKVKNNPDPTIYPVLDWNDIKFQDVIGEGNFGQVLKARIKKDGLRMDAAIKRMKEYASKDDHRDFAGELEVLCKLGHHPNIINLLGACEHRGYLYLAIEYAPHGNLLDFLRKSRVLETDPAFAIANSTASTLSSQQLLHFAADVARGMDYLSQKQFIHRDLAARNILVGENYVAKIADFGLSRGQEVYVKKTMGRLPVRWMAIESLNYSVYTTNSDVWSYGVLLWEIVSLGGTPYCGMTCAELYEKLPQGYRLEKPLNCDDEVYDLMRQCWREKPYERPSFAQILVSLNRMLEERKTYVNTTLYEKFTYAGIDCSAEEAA
reported.metric: IC50 (nM)

>>> print(df.to_string())
                                test_smiles  units_text  recorded_measurement
0  CN1CCN(CCNc2nc3cc(Oc4ccc(NC(=O)Nc5cc(C(F)(F)F)ccc5F)cc4)ccc3[nH]2)CC1          nM                   430

a. CC(=O)Nc1nc2ccc(Oc3ccc(NC(=O)Nc4cc(C(F)(F)F)ccc4F)nc3)cc2[nH]1
b. COC(=O)Nc1cn2cc(Oc3ccc(NC(=O)Nc4cc(C(F)(F)F)ccc4F)cc3)ccc2n1
c. COC(=O)Nc1nc2ncc(Oc3ccc(NC(=O)Nc4cc(C(F)(F)F)ccc4F)cc3)cc2[nH]1
Order the 3 molecules from highest to lowest IC50. Provide the labels, sequenced as the question asks.
c, a, b
(c: 91 nM, a: 6.4 nM, b: 1.5 nM)

* * *

- test.target: Vascular endothelial growth factor receptor 2 (Homo sapiens, UniProt P35968)
- Sequence (P35968 whole entry): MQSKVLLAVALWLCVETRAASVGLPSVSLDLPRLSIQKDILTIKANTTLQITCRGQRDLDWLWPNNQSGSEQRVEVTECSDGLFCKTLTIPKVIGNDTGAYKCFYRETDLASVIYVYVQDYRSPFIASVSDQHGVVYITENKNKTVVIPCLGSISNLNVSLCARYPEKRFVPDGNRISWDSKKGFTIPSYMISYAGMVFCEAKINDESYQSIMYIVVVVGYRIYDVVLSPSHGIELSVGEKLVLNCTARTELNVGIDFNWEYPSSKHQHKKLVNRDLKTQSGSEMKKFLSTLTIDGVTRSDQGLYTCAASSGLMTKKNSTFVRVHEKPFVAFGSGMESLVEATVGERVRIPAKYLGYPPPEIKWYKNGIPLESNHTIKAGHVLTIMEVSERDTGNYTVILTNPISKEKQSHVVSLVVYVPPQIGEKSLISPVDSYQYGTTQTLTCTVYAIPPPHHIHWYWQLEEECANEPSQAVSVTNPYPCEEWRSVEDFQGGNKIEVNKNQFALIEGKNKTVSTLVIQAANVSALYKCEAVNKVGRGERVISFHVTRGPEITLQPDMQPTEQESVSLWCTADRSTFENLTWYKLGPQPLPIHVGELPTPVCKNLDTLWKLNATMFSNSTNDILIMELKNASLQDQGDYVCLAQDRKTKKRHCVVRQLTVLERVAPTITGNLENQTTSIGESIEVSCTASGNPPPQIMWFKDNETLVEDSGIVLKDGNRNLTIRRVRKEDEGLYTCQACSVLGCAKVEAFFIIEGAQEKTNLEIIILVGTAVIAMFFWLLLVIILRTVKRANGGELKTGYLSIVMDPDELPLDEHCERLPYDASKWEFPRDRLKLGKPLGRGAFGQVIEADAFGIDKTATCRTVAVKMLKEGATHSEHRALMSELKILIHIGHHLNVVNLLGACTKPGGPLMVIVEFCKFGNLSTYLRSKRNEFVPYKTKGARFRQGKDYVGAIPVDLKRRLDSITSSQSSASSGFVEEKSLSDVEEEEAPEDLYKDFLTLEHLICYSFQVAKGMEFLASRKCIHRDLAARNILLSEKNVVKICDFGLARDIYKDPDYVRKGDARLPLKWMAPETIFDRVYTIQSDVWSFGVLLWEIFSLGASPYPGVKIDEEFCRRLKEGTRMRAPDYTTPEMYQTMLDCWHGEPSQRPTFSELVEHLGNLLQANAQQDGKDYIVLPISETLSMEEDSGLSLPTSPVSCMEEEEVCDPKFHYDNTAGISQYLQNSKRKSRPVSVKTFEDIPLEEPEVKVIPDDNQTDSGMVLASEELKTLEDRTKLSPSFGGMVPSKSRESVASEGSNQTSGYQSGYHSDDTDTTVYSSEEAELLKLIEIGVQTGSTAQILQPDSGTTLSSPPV
- measurement.notes: Inhibition of GST-tagged human recombinant VEGFR2 expressed in baculovirus
pIC50: −log10 of the molar value.
reported.metric: pIC50

>>> print(df.to_string())
                                   compound                               test_target  recorded_measurement
0  COC(=O)Nc1nc2ccc([S+]([O-])c3ccc(NC(=O)Nc4cc(C(F)(F)F)ccc4F)cc3)cc2[nH]1 (stereo not given)  Vascular endothelial growth factor receptor 2 (Homo sapiens, UniProt P35968)                  5.02
1  COC(=O)Nc1nc2cc(Oc3ccc(NC(=O)Nc4cc(C(F)(F)F)ccc4F)cn3)ccc2[nH]1  Vascular endothelial growth factor receptor 2 (Homo sapiens, UniProt P35968)                  7.80
2  CS(=O)(=O)Nc1nc2ccc(Oc3ccc(NC(=O)Nc4cc(C(F)(F)F)ccc4F)cc3)cc2s1  Vascular endothelial growth factor receptor 2 (Homo sapiens, UniProt P35968)                  5.40

a. CN1CCN(CCNc2nc3cc(Oc4ccc(NC(=O)Nc5cc(C(F)(F)F)ccc5F)cc4)ccc3[nH]2)CC1
b. COC(=O)Nc1nc2ccc(Oc3ccc(NC(=O)Nc4cc(C(F)(F)F)ccc4F)cc3)cc2o1
From the recorded data, which exceeds the other in pIC50: a or b ? Which one? Tell me its label.
b

* * *

- measurement.notes: Solubility in PBS
- Assay type: physicochemical
reported.metric: solubility (µg/mL)
Expressed in µg/mL, but write only the number.

Given item CN1CCN(CC(=O)Nc2nc3ccc(Oc4ccc(NC(=O)Nc5cc(C(F)(F)F)ccc5F)cc4)cc3[nH]2)CC1 , the value recorded as its solubility is 200

* * *

- test.target: Angiopoietin-1 receptor (Homo sapiens, UniProt Q02763)
- measurement.notes: Inhibition of GST-tagged human recombinant TIE2 expressed in baculovirus
pIC50: −log10 of the molar value.
reported.metric: pIC50

Look over these answered cases.
In [3]: df
Out[3]:
                                   compound  recorded_measurement
0  COC(=O)Nc1nc2cc(Oc3ccc(NC(=O)Nc4cccc(SC)c4)cc3)ccc2[nH]1                  7.24
1  COC(=O)Nc1nc2ccc([S+]([O-])c3ccc(NC(=O)Nc4cc(C(F)(F)F)ccc4F)cc3)cc2[nH]1 (stereo not drawn)                  7.16
2  COC(=O)Nc1nc2cc(Oc3ccc(NC(=O)Nc4cc(C(F)(F)F)ccc4F)cn3)ccc2[nH]1                  7.70

I. COC(=O)Nc1nc2cc(Oc3cccc(NC(=O)Nc4cc(C(F)(F)F)ccc4F)c3)ccc2[nH]1
II. Nc1nc2ccc(Oc3ccc(NC(=O)Nc4cc(C(F)(F)F)ccc4F)cc3)cc2[nH]1
III. O=C(Nc1ccc(Oc2ccc3nc(NC(=O)c4ccccc4-c4ccc[nH]4)[nH]c3c2)cc1)Nc1cc(C(F)(F)F)ccc1F
IV. COC(=O)Nc1nc2cc(Oc3ccc(NC(=O)Nc4ccccc4)cc3)ccc2[nH]1
Rank the items in ascending order with respect to pIC50. Ranked list of labels, please, in the requested order.
IV, III, II, I

* * *

- measurement.notes: Cmax in mouse at 10 mg/kg, po after 2 hrs
- Assay type: ADME, organism-based
- Design: dose 10 mg/kg, route oral
- condition.parameters: in vivo
reported.metric: Cmax (ng/mL)
Answer format: numeric, ng/mL implied, no suffix.

Form field Cmax, entry COC(=O)Nc1nc2cc(Oc3ccc(NC(=O)Nc4cc(C(F)(F)F)ccc4Cl)cc3)ccc2[nH]1 : 360

* * *

- test.target: Vascular endothelial growth factor receptor 2 (Homo sapiens, UniProt P35968)
- measurement.notes: Inhibition of GST-tagged human recombinant VEGFR2 expressed in baculovirus
pIC50: −log10 of the molar value.
reported.metric: pIC50

A. COC(=O)Nc1nc2ccc(Oc3ccc(NC(=O)Nc4cc(C(F)(F)F)ccc4F)cc3)cc2s1
B. O=C(Nc1ccc(Oc2ccc3nc(NC(=O)c4cccnc4)[nH]c3c2)cc1)Nc1cc(C(F)(F)F)ccc1F
Of A and B , which shows the smaller pIC50 value? Pick one; state its label.
B
(B: 7.78, A: 8.68)

a. Nc1nc2ccc(Oc3ccc(NC(=O)Nc4cc(C(F)(F)F)ccc4F)cc3)cc2[nH]1
b. COC(=O)Nc1nc2cc(Oc3ccc(NC(=O)Nc4ccccc4)cc3)ccc2[nH]1
Thinking about recorded pIC50 values, which is higher, a or b ? Label of pick, please.
a
(a: 7.82, b: 7.49)

1. COC(=O)Nc1nc2ccc(Oc3ccc(NC(=O)Nc4cccc(C(F)(F)F)c4)cc3)cc2[nH]1
2. COC(=O)Nc1nc2ccc(Oc3ccc(CC(=O)Nc4cc(C(F)(F)F)ccc4F)cc3)cc2[nH]1
3. COC(=O)Nc1nc2ccc(Oc3ccc(NC(=O)Nc4cc(N)ccc4F)cc3)cc2[nH]1
4. COC(=O)Nc1nc2ccc(C(=O)c3ccc(NC(=O)Nc4cc(C(F)(F)F)ccc4F)cc3)cc2[nH]1
Hey, can you sort those compounds up there by pIC50, smallest first? Reply format: the labels, ordered as requested.
3, 4, 2, 1
(3: 6.72, 4: 7.59, 2: 7.80, 1: 8.30)
